assay: Mean volume of distribution at steady state in Swiss albino male mice at 1 mg/kg per compound (administered iv in a mixture of 5 compounds to 3 mice) assessed by LCMS/MS.; assay type: ADME, organism-based; settings: mouse, in vivo, read-out: Volume
Value type: Vd (L/kg)
Numeric answer only, unit L/kg assumed.

Example cases with answers are listed next.
- CC(C)c1nc2cnc(-c3ccc(F)c(C(F)(F)F)c3)cn2c1-c1ccc2[nH]ncc2c1: 3.16
- CC(C)c1nc2cnc(-c3ccc(F)c(C(F)(F)F)c3)cn2c1-c1c(F)cc(OP(=O)(O)O)cc1F: 3.62
- CC(C)c1nc2cnc(-c3cccc(S(F)(F)(F)(F)F)c3)cn2c1-c1c(F)cc(O)cc1F: 2.64

# query: Vd of entry `Fc1ccc(-c2cn3c(-c4ccc5[nH]ncc5c4F)c(C(F)(F)F)nc3cn2)cc1OC(F)(F)F`
5.89

# query: Vd of entry `Oc1ccc(-c2c(C(F)(F)F)nc3cnc(-c4cccc(C(F)(F)F)c4)cn23)c(F)c1`
9.55

* * *

assay: Mean half-life in Swiss albino male mice at 1 mg/kg per compound (administered iv in a mixture of 5 compounds to 3 mice) assessed by LCMS/MS.; assay type: ADME, organism-based; settings: mouse, in vivo
Value type: half-life
Remember to quote the unit after the number.

Example cases with answers are listed next.
* COc1ccc(-c2c(C(C)C)nc3cnc(-c4cccc(C(F)(F)F)c4)cn23)cc1O | 1.92 h
* CC1(c2nc3cnc(-c4ccc(F)c(C(F)(F)F)c4)cn3c2-c2c(F)cc(O)cc2F)CC1 | 8.48 h
* COc1ccc(-c2c(C3CC3)nc3cnc(-c4cccc(C(F)(F)F)c4)cn23)cc1O | 1.04 h
* Fc1ccc(-c2cn3c(-c4ccc5[nH]ncc5c4F)c(C(F)(F)F)nc3cn2)cc1CC(F)(F)F | 2.75 h
* Fc1ccc(-c2cn3c(-c4ccc5[nH]ncc5c4F)c(C(F)(F)F)nc3cn2)cc1C1CC1 | 2.82 h
* Oc1cc(F)c(-c2cnc3cnc(-c4cccc(C(F)(F)F)c4)cn23)c(F)c1 | 2.95 h
* CC(C)c1nc2cnc(-c3ccc(F)c(C(F)(F)F)c3)cn2c1-c1c(F)cc(OP(=O)(O)O)cc1F | 0.416 h
* CC(C)c1nc2cnc(-c3ccc(F)c(S(F)(F)(F)(F)F)c3)cn2c1-c1ccc2[nH]ncc2c1F | 8.96 h

Note: attention shifts to another entry.
# query: half-life of entry `Cc1nc2cnc(-c3ccc(F)c(C(F)(F)F)c3)cn2c1-c1c(F)cc(O)cc1F`
3.6 h

* * *

assay: Plasma protein binding determined at 10uM by LC-MS/MS.; conditions: mouse
Entries and their Binding values follow.
Numeric answer only, unit % assumed.

# query: Binding of entry `COc1ccc(-c2c(C(C)C)nc3cnc(-c4ccc(F)c(C(F)(F)F)c4)cn23)cc1O`
99.9485

# query: Binding of entry `COc1ccc(-c2c(C3CC3)nc3cnc(-c4cccc(C(F)(F)F)c4)cn23)cc1O`
99.9319

# query: Binding of entry `COc1ccc(-c2c(C)nc3ccc(-c4cccc(C(F)(F)F)c4)cn23)cc1O`
99.8676

# query: Binding of entry `COc1ccc(-c2c(C(C)C)nc3cnc(-c4ccnc(N(C)C)c4)cn23)cc1O`
98.4537

* * *

experiment: Percentage of parent compound remaining after incubation for 90 minutes with cyropreserved mouse hepatocytes at a concentration of 1uM compound and […], determined by LCMS; type: ADME, tissue-based, Hepatocyte; conditions: cryopreserved mouse hepatocytes, read-out: Stability
Lab note: anything with remaining at 1.5 h, 1 µM below 60% is marked true (1); values at 60% or higher are marked false (0).

Record excerpt, results attached:
- CCc1nc2cnc(-c3ccc(F)c(C(F)(F)F)c3)cn2c1-c1ccc2[nH]ncc2c1F: false (0)
- Fc1ccc(-c2cn3c(-c4ccc5[nH]ncc5c4F)c(C4CC4)nc3cn2)cc1S(F)(F)(F)(F)F: false (0)

Would you kindly verify if remaining at 1.5 h, 1 µM of `Fc1c(-c2c(C(F)(F)F)nc3cnc(-c4ccnc(C(F)(F)F)c4)cn23)ccc2[nH]ncc12` is strictly less than 60%?
false (0)

Would you kindly verify if remaining at 1.5 h, 1 µM of `CC(C)c1nc2cnc(-c3ccc(F)c(S(F)(F)(F)(F)F)c3)cn2c1-c1ccc2[nH]ncc2c1F` is strictly less than 60%?
false (0)

Would you kindly verify if remaining at 1.5 h, 1 µM of `Oc1cc(F)c(-c2c(C3CCC3)nc3cnc(-c4ccc(F)c(C(F)(F)F)c4)cn23)c(F)c1` is strictly less than 60%?
true (1)

Would you kindly verify if remaining at 1.5 h, 1 µM of `Fc1ccc(-c2cn3c(-c4ccc5[nH]ncc5c4)c(C(F)(F)F)nc3cn2)cc1C(F)(F)F` is strictly less than 60%?
true (1)

Would you kindly verify if remaining at 1.5 h, 1 µM of `CC(C)c1nc2cnc(-c3cccc(C(F)(F)F)c3)cn2c1-c1c(F)cc(O)cc1F` is strictly less than 60%?
true (1)

Would you kindly verify if remaining at 1.5 h, 1 µM of `Oc1cc(F)c(-c2c(C3CC3)nc3cnc(-c4ccc(F)c(S(F)(F)(F)(F)F)c4)cn23)c(F)c1` is strictly less than 60%?
false (0)

* * *

test: Concentration required to kill 50% MRC5 cells as detected by Alamar blue staining; conditions: homo sapiens, read-out: TC50 (the source's name)
Value type: CC50 (µM)
Numeric answer only, unit µM assumed.

# query: CC50 of entry `COc1ccc(-c2cnc3cnc(-c4cccc(C(C)C)c4)cn23)cc1O`
18.6

* * *

experiment: Mean AUC inf in Swiss albino male mice at 1 mg/kg per compound (administered iv in a mixture of 5 compounds to 3 mice) assessed by LCMS/MS.; type: ADME, organism-based; conditions: male, Swiss albino, mouse, in vivo
Value type: AUC(0-inf) (ng·h/mL)
Numeric answer only, unit ng·h/mL assumed.

Example cases with answers are listed next.
• CCc1nn2cnc(-c3ccc(F)c(C(F)(F)F)c3)cc2c1-c1c(F)cc(O)cc1F = 144
• CC(C)c1nc2cnc(-c3ccc(F)c(C(F)(F)F)c3)cn2c1-c1c(F)cc(OP(=O)(O)O)cc1F = 54.7
• CC(C)Oc1cc(-c2cn3c(-c4ccc5[nH]ncc5c4F)c(C(F)(F)F)nc3cn2)ccc1F = 340
• COc1ccc(-c2c(C(C)C)nc3cnc(-c4ccc(F)c(C(F)(F)F)c4)cn23)cc1O = 143
• COc1ccc(-c2c(C(C)C)nc3cnc(-c4ccnc(N(C)C)c4)cn23)cc1O = 48.3

# query: AUC(0-inf) of entry `CCc1nc2cnc(-c3cccc(C(F)(F)F)c3)cn2c1-c1ccc(O)cc1F`
144

# query: AUC(0-inf) of entry `Oc1ccc(-c2cnc3cnc(C4=COCCC4)cn23)cc1`
52.2

# query: AUC(0-inf) of entry `CC(C)c1nc2cnc(-c3ccc(F)c(S(F)(F)(F)(F)F)c3)cn2c1-c1ccc2[nH]ncc2c1F`
1470

# query: AUC(0-inf) of entry `Cc1nc2cnc(-c3ccc(F)c(C(F)(F)F)c3)cn2c1-c1ccc(O)cc1F`
172

* * *

assay: Mean oral bioavailability in Swiss albino male mice at […] per compound (administered in a mixture of 5 compounds to 3 mice) assessed by LCMS/MS.; also: dose 2.5 mg/kg; format: ADME, organism-based; details: male, Swiss albino, mouse, in vivo, read-out: Bioavailability
Entries and their bioavailability values follow.
Numeric answer only, unit % assumed.

Example cases with answers are listed next.
• CC(C)c1cc(-c2cn3c(-c4ccc5[nH]ncc5c4F)c(C(C)C)nc3cn2)ccc1F = 64
• COc1ccc(-c2c(C3CC3)nc3cnc(-c4cccc(C(F)(F)F)c4)cn23)cc1O = 3.64
• Fc1ccc(-c2cn3c(-c4ccc5[nH]ncc5c4F)c(C(F)(F)F)nc3cn2)cc1C1CCC1 = 121

# query: bioavailability of entry `Cc1noc(C)c1-c1cn2c(-c3ccc(O)cc3)cnc2cn1`
0.01

# query: bioavailability of entry `CC(C)c1cc(-c2cn3c(-c4ccc5[nH]ncc5c4F)c(C4CC4)nc3cn2)ccc1F`
149

# query: bioavailability of entry `CCc1nc2cnc(-c3ccc(F)c(C(F)(F)F)c3)cn2c1-c1ccc2[nH]ncc2c1F`
82.7

# query: bioavailability of entry `Cc1nc2cnc(-c3ccc(F)c(C(F)(F)F)c3)cn2c1-c1c(F)cc(OP(=O)(O)O)cc1F`
39.3

# query: bioavailability of entry `Oc1cc(F)c(-c2cnc3cnc(-c4cccc(C(F)(F)F)c4)cn23)c(F)c1`
41.7

# query: bioavailability of entry `Cc1nc2cnc(-c3ccc(F)c(C(F)(F)F)c3)cn2c1-c1c(F)cc(O)cc1F`
88.5

# query: bioavailability of entry `CCc1nc2cnc(-c3ccc(F)c(C(F)(F)F)c3)cn2c1-c1c(F)cc(O)cc1F`
47.7

# query: bioavailability of entry `Oc1ccc(-c2cnc3cnc(C4=COCCC4)cn23)cc1`
0.01

# query: bioavailability of entry `COc1ccc(-c2c(C(C)C)nc3cnc(-c4ccc(F)c(C(F)(F)F)c4)cn23)cc1O`
8.28

# query: bioavailability of entry `Fc1c(-c2c(C(F)(F)F)nc3cnc(-c4cccc(OC(F)(F)F)c4)cn23)ccc2[nH]ncc12`
114

# query: bioavailability of entry `CC(C)c1nc2cnc(-c3cccc(S(F)(F)(F)(F)F)c3)cn2c1-c1c(F)cc(O)cc1F`
18.4

# query: bioavailability of entry `Oc1cc(F)c(-c2c(C3CCC3)nc3cnc(-c4ccc(F)c(C(F)(F)F)c4)cn23)c(F)c1`
48.6

# query: bioavailability of entry `Cc1c(-c2c(C(F)(F)F)nc3cnc(-c4ccc(F)c(C(F)(F)F)c4)cn23)ccc2[nH]ncc12`
65.2

# query: bioavailability of entry `Fc1ccc(-c2cn3c(-c4ccc5[nH]ncc5c4F)c(C(F)(F)F)nc3cn2)cc1CC(F)(F)F`
52.5

# query: bioavailability of entry `COc1ccc(-c2c(C(F)(F)F)nc3cnc(-c4cccc(C(F)(F)C(F)(F)F)c4)cn23)cc1O`
9.77

# query: bioavailability of entry `COc1ccc(-c2c(C(C)C)nc3cnc(-c4cccc(C(F)(F)F)c4)cn23)cc1O`
7.84
